- Test system: HOP-92
- protocol_description: NCI tumour cell line growth inhibition, 48 h
Active and inactive are the calls of the source. Cut-off read from the data, not from the text of the source: active = GI50 up to about 1.1 µM and inactive = higher.
Could you please pick one outcome from this set? 1 = active, -1 = inactive

Solved cases (5 shown):
>  <compound>
CCN(CC)C1CC(n2cc(C)c(=O)[nH]c2=O)OC1CO (stereo not given)

>  <qualitative_label>
-1

$$$$
>  <compound>
COC(=O)C1=C(c2ccc3c(c2)OCO3)O[C@H](c2cc(OC)c(OC)c(OC)c2)[C@H]1COC(C)=O

>  <qualitative_label>
-1

$$$$
>  <compound>
Cc1c(/C=N/NC(=O)c2ccc(Cl)cc2)c(=O)n(-c2ccccc2)n1C

>  <qualitative_label>
-1

$$$$
>  <compound>
COC1CC(N)C(O)C(C)O1 (stereo not given)

>  <qualitative_label>
-1

$$$$
>  <compound>
CCOC1(COP(=O)(OCc2ccccc2)OCc2ccccc2)COC(COP(=O)(OCc2ccccc2)OCc2ccccc2)(OCC)CO1 (stereo not given)

>  <qualitative_label>
-1

$$$$

Ask: // return assay outcome for Cc1cccc(C(C)(C)C)c1NC(=O)C(=O)C(c1cnc2ccccc2n1)[N+](=O)[O-] (stereo not given)
Result: -1

Ask: I would be grateful if you could indicate the recorded call for CCOC(=O)N1C(=S)C(C(=O)OC)(C(=O)OC)N=C1C .
Result: -1

Ask: Name the outcome recorded for C=C1C(=O)OC2C[C@@]3(C)CCCC(=C)C3CC12 (stereo not given in full) in the assay.
Result: -1

Ask: Could you please tell me the result logged for Cc1nn(C(=O)c2ccccc2O)c2c1C(c1ccc3ccccc3c1O)SC(=N)N2 (stereo not given) in this assay?
Result: 1

Ask: What outcome does the record of this test show for COC(=O)c1ccc(NC(=O)c2cc3c(cc2Br)OCO3)o1 ?
Result: -1

----------
- Test system: DMS-114
- protocol_description: NCI tumour cell line growth inhibition, 48 h
Structures can show the parent of a compound that is named as a salt. Calls of active or inactive are those of the source. No stated cut-off is given here; in the data, active = GI50 up to about 1.1 µM and inactive = higher.
Response enum: active, inactive

>  <compound>
O=C(/C=C/c1ccccc1O)c1cccc2ccccc12

>  <qualitative_label>
inactive

$$$$
>  <compound>
Nc1nc2[nH]cnc2c(=S)[nH]1 [THIOGUANINE]

>  <qualitative_label>
active

$$$$

Ask: Please let me know the test result on file for COc1cc(C2c3cc4c(cc3[C@@H](Nc3ccc(N)cc3)C3COC(=O)[C@H]23)OCO4)cc(OC)c1O (stereo partly drawn) .
Result: inactive

Ask: Record lookup: outcome of this test for COc1cc2cc(OC(C)=O)c3cc4c(cc3c2c(OC)c1OC)OCO4 ?
Result: inactive

Ask: How did this test come out for COc1cc2c(cc1OC)C(C(=O)O)C(c1ccccc1)N(C)C2=O (stereo not drawn) ?
Result: inactive

Ask: I'd appreciate the recorded outcome for CC[C@]1(O)C[C@H]2CN(CCc3c([nH]c4ccccc34)[C@@](C(=O)OC)(c3cc4c(cc3OC)N(C=O)[C@H]3[C@@](O)(C(=O)OC)[C@H](OC(C)=O)[C@]5(CC)C=CCN6CC[C@]43[C@@H]65)C2)C1 [VINCRISTINE SULFATE] from this test.
Result: active

Ask: Per the records of this test, what outcome belongs to Cc1cccc(C(C)(C)C)c1NC(=O)C(=O)C(c1cnc2ccccc2n1)[N+](=O)[O-] (stereo not drawn) ?
Result: inactive

Ask: Check the results log: what was the call for O=C1C=CC(=O)C2C1Cc1ccccc1C2c1ccccc1 (stereo not drawn) ?
Result: inactive

----------
- Tested on: SR
- protocol_description: NCI tumour cell line growth inhibition, 48 h
Calls of active or inactive are those of the source. Cut-off read from the data, not from the text of the source: active = GI50 up to about 1.1 µM and inactive = higher.
Please answer using one outcome listed in active, inactive

>  <compound>
O=C1/C(=C\c2cccc(Oc3ccccc3)c2)S(=O)(=O)C(c2ccccc2)N1c1ccccc1Cl (centres undefined)

>  <qualitative_label>
inactive

$$$$
>  <compound>
COc1ccc(NC(C)=O)cc1N1C(=O)/C(=C\c2cc(OC)c(OC)c(OC)c2)SC1c1ccccc1 (centres undefined)

>  <qualitative_label>
inactive

$$$$
>  <compound>
CC(C)(C)c1cc(-c2c3nc(c(-c4cc(C(C)(C)C)cc(C(C)(C)C)c4)c4ccc([nH]4)c(-c4cc(C(C)(C)C)cc(C(C)(C)C)c4)c4nc(c(-c5cc(C(C)(C)C)cc(C(C)(C)C)c5)c5ccc2[nH]5)C=C4)C=C3)cc(C(C)(C)C)c1

>  <qualitative_label>
inactive

$$$$
>  <compound>
Cc1ccc2c(c1C)-c1c(ccc(C)c1C)C(=O)C2=O

>  <qualitative_label>
active

$$$$
>  <compound>
C=C1CC23CCC4C(C)(C(=O)O)CCCC4(C)C2CCC1C3 (centres undefined)

>  <qualitative_label>
inactive

$$$$
>  <compound>
O=C1OC(c2ccc([N+](=O)[O-])cc2)=N/C1=C\c1ccc(O)cc1

>  <qualitative_label>
inactive

$$$$
>  <compound>
Nc1nc2[nH]cnc2c(=S)[nH]1

>  <qualitative_label>
active

$$$$
>  <compound>
Cc1ccc(S(=O)(=O)CC(=O)CC(=O)C(=O)Nc2cccc(C(F)(F)F)c2)cc1

>  <qualitative_label>
inactive

$$$$
>  <compound>
CCCCCCCCCCCCCCCCCCOCC(O)COP(=O)(O)OCC1OC(n2ccc(N)nc2=O)C(O)C1O (centres undefined)

>  <qualitative_label>
inactive

$$$$
>  <compound>
CNc1ccc(C(=O)CC(O)CCC(C)C2OC(=O)CC(O)CC(=O)CC(O)CC(O)CC(O)CC(O)CC3(O)CC(O)C(C(=O)N4CCOCC4)C(CC(OC4OC(C)C(O)C(N)C4O)\C=C/C=C\C=C/C=C/C=C/C=C\C=C/C2C)O3)cc1 (centres undefined)

>  <qualitative_label>
active

$$$$

Ask: Answer briefly: the call reported for CCNc1nnc(-c2ccccc2Nc2ccccc2-c2nnc(NCC)s2)s1 in this assay.
Result: inactive

Ask: Answer briefly: the call reported for O=[N+]([O-])c1ccccc1[S+]([O-])c1ccccc1 (centres undefined) in this assay.
Result: inactive

Ask: Write down the call the test reported for this compound. Item: CCP(=O)(CC)C(Cl)(Cl)C(O)C(Cl)(Cl)Cl (centres undefined)
Result: inactive

Ask: Name the outcome recorded for O=C(N/C(=C\c1ccccc1[N+](=O)[O-])c1nc2ccccc2[nH]1)c1ccccc1 in the assay.
Result: inactive

Ask: Tell me the recorded outcome of this test for O=C1C=CC(=O)C2C1Cc1ccccc1C2c1ccccc1 (centres undefined) .
Result: inactive

Ask: Would you mind telling me which call this test gave CC(C)C(=O)Nc1nc2[nH]cnc2c(=O)[nH]1 ?
Result: inactive

----------
- Tested on: M14
- protocol_description: NCI tumour cell line growth inhibition, 48 h
Active and inactive are the calls of the source. No stated cut-off is given here; in the data, active = GI50 up to about 1.1 µM and inactive = higher.
Write down one outcome, taken from yes (active), no (inactive)

As a guide, the following entries are already answered.
>  <compound>
O=C1C=CC(=O)C2C1Cc1ccccc1C2c1ccccc1 (stereo unspecified)

>  <qualitative_label>
no

$$$$
>  <compound>
N=C1OC(c2cccc(Cl)c2)C(NNS(=O)(=O)c2ccccc2)=C1O (stereo unspecified)

>  <qualitative_label>
no

$$$$
>  <compound>
CC1(C)CC(N(C(=O)/C=C/c2ccc([N+](=O)[O-])o2)C2CCCCC2)CC(C)(C)N1

>  <qualitative_label>
no

$$$$
>  <compound>
N#C/C(N)=C(C#N)/N=C/NCCO

>  <qualitative_label>
no

$$$$
>  <compound>
COc1ccccc1C(=O)N(C)c1ccc(Cl)c(C(=O)OC(C)C)c1

>  <qualitative_label>
no

$$$$
>  <compound>
O=C1Cc2ccccc2CCc2ccsc21

>  <qualitative_label>
no

$$$$
>  <compound>
COC(=O)C1=C(c2ccc3c(c2)OCO3)O[C@H](c2cc(OC)c(OC)c(OC)c2)[C@H]1COC(C)=O

>  <qualitative_label>
no

$$$$
>  <compound>
O=[N+]([O-])c1ccccc1[S+]([O-])c1ccccc1 (stereo unspecified)

>  <qualitative_label>
no

$$$$

Ask: Kindly provide the recorded test outcome for the following compound: O=c1oc2ccccc2c(Nc2ccc3c(c2)Oc2ccccc2O3)c1[N+](=O)[O-]
Result: no

Ask: Just curious, what result did CC(CN(C)C)/C(=N\Nc1ccccc1)c1ccccc1 (stereo unspecified) get here?
Result: no

Ask: Field: outcome | Entry: COc1ccc(-c2nc3cc(C(F)(F)F)ccc3n2CC2CCCN3CCCCC23)cc1 (stereo unspecified)
Result: no

Ask: Any idea what this test logged for O=C(O)/C(=C/c1ccccc1)c1ccccc1 ?
Result: no

Ask: How was Cc1cc(NS(=O)(=O)c2ccc(NC(=O)c3cccc4c(NNc5ccc(S(=O)(=O)N=C(N)N)cc5)c5ccccc5nc34)cc2)no1 classified in this test?
Result: no

----------
- Test system: UO-31
- protocol_description: NCI tumour cell line growth inhibition, 48 h
Activity calls are given as the source filed them. Rule as the data show it: active = GI50 up to about 1.1 µM and inactive = higher.
Quick list: GI50 per entry.

Known GI50 results, listed for orientation:
>  <molecule>
O=C(O)c1cc(-c2ccc3c(O)ccc(O)c3c2)ccc1O

>  <GI50>
17.4 µM (inactive)

$$$$
>  <molecule>
CCCCOc1c(C(=O)O)cc(Br)cc1C(=O)O

>  <GI50>
> 100 µM (inactive)

$$$$
>  <molecule>
CC(=O)OCc1cncn1S(=O)(=O)c1ccc(C)cc1

>  <GI50>
> 100 µM (inactive)

$$$$
>  <molecule>
Cc1ccc(Nc2nc3ccccc3c(=O)n2N)cc1

>  <GI50>
> 100 µM (inactive)

$$$$
>  <molecule>
C/C(Nc1ccc(Cl)cc1)=C1/CCOC1=O

>  <GI50>
2.81 µM (inactive)

$$$$
>  <molecule>
C=C(C)CNC(=S)N(N)c1ccc2ccccc2c1

>  <GI50>
61.1 µM (inactive)

$$$$
>  <molecule>
CN1CC(=O)N(C)c2[nH]cnc2C1=O

>  <GI50>
> 100 µM (inactive)

$$$$
>  <molecule>
CCOC(=O)C(=O)Nc1ccc(C)c(C)c1

>  <GI50>
> 100 µM (inactive)

$$$$
>  <molecule>
Cn1cc(NC(=O)c2cc(NC(=O)CNC(=N)N)cn2C)cc1C(=O)NCCC(=N)N [NETROPSIN CHLORIDE]

>  <GI50>
> 100 µM (inactive)

$$$$
>  <molecule>
CN(C)P(=O)(Oc1occc1C(O)Cc1ccccc1)N(C)C (stereo not drawn)

>  <GI50>
> 100 µM (inactive)

$$$$

Given the molecule COc1ccc(-c2nc3cc(C(F)(F)F)ccc3n2CC2CCCN3CCCCC23)cc1 (stereo not drawn) and test system UO-31, the measured GI50 is 17.1 µM (inactive)

Field GI50 (system: UO-31) for entry CN(C(=O)CCC(=O)O)c1ccccc1C(=O)O = > 100 µM (inactive)

Known value: UO-31 GI50 of the molecule O=C1NC(O)CCN1C1CC(O)C(CO)O1 (stereo not drawn) equals > 100 µM (inactive)
